Value source: ChEMBL document CHEMBL5046270

procedure_summary: Elimination rate constant in plasma of BALB/c mouse xenografted with mouse CT26 cells at 100 mg/kg, po by LC-MS/MS analysis
Assay type: ADME, organism-based
property: k el (s⁻¹)
Numeric only. Scale: s⁻¹

So what does the record say about k el for CN1CCN(C(=O)c2ccc3cc(CCNc4ccnc5ccc(C#N)cc45)ccc3c2)CC1 ?
5.56e-05
